These entries and their values trace back to the kinase profiling compilation of Christmann-Franck et al. (2016).

MEASUREMENT_TARGET: STK33 (human) (UniProt Q9BYT3)
Sequence (Q9BYT3 whole entry, looked up): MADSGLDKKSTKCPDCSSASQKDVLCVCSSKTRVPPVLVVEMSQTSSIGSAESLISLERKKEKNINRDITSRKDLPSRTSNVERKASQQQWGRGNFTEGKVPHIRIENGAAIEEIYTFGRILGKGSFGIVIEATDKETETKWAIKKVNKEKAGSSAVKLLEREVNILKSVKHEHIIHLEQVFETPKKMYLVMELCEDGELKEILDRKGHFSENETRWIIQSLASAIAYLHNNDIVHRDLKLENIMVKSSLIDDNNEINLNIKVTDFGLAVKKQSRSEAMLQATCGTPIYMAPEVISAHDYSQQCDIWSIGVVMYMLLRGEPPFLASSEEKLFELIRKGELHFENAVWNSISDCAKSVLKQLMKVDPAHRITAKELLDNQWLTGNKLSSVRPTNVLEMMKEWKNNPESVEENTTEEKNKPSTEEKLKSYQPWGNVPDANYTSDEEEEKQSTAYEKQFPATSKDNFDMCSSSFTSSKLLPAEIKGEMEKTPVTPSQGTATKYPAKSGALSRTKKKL
PROTOCOL: radiometric filter-binding kinase assay, Kinase HotSpot
ASSAY_CONDITIONS: compound 0.5 µM; ATP 10 µM
Grouping rule (residual activity): bottom end (below 70%), midrange (70% to below 90%), top end (90% or more)

Recorded results for 3 molecules are shown here.
CC(C)c1nn(-c2c(Cl)cccc2Cl)c2nc(Cc3ccc(OCCO)cc3)nc(O)c12 : top end
c1cc(-c2cnn3cc(-c4ccc(OCCN5CCCCC5)cc4)cnc23)ccn1 : bottom end
COc1ccc(CNC(=O)Nc2ncc([N+](=O)[O-])s2)cc1 : top end

[ask] Consider "Oc1ccc(Nc2nc(-c3ccc(Cl)cc3)cs2)cc1" . To which residual activity class does it belong?
[reply] top end

[ask] Class (by measured residual activity) for "CC(C)[C@H](CO)Nc1nc(Nc2cc(N)cc(Cl)c2)c2ncn(C(C)C)c2n1"
[reply] bottom end

[ask] Lab log: "Cn1nc2c3c(cccc31)C(=O)c1ccccc1-2" — assign residual activity category
[reply] midrange

[ask] // return the class label for "COc1cc2ncnc(N3CCN(C(=O)Nc4ccc(Oc5ccccc5)cc4)CC3)c2cc1OC"
[reply] top end

[ask] Please let me know in which category the item "O=C1NC(=O)C(c2cn(CCCO)c3ncccc23)=C1c1cnccn1" belongs.
[reply] midrange

* * *

Attribute: residual activity
MEASUREMENT_TARGET: EPHB1 (human)
PROTOCOL: radiometric filter-binding kinase assay, Kinase HotSpot
ASSAY_CONDITIONS: compound 0.5 µM; ATP 10 µM
Give a bare numeral; the unit % is implied.

Sample records with residual activity:
COc1ccc(CNC(=O)Nc2ncc([N+](=O)[O-])s2)cc1 : 102
O=C(Nc1cccc(Nc2cc(Nc3cccc(C(F)(F)F)c3)ncn2)c1)C1CC1 : 100
Nc1nccc(-c2c(-c3ccc(F)cc3)ncn2C2CCNCC2)n1 : 99.9
Cc1nc2cc3nc(-c4cccs4)cnc3cc2n1C : 107
O=C(CCCc1ccc(-c2ccccc2F)cc1)Nc1ccc(O)cc1 : 96.4

Here is the next item to consider.
[ask] Tell me its residual activity given "COc1ccc(OC)c2c(=S)c3ccccc3[nH]c12" as the entry.
[reply] 87.1

* * *

MEASUREMENT_TARGET: MAP4K2 (human) (UniProt Q12851)
Sequence (Q12851 whole entry, looked up): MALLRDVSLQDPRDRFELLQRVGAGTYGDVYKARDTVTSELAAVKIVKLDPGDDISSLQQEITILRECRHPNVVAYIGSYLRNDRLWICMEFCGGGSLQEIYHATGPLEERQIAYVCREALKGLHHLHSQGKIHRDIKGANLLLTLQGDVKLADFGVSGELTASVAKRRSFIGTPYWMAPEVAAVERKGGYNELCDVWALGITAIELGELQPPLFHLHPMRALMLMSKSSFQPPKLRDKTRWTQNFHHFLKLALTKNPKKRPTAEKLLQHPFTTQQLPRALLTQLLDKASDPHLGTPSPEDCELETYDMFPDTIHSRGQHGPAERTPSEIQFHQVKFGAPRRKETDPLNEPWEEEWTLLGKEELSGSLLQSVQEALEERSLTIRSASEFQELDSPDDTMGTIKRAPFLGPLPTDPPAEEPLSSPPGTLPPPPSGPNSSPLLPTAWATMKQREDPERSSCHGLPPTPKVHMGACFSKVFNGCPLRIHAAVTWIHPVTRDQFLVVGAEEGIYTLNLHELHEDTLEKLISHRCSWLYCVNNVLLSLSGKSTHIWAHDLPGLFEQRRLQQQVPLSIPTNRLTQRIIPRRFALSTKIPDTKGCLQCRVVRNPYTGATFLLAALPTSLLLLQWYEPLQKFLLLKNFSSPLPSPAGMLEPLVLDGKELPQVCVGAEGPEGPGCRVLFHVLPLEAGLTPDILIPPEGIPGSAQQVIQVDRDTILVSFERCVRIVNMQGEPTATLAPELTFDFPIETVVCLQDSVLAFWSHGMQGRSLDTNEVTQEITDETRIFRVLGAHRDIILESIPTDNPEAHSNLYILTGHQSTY
PROTOCOL: radiometric filter-binding kinase assay, Kinase HotSpot
ASSAY_CONDITIONS: compound 0.5 µM; ATP 10 µM
Listed here are compounds together with their documented residual activity.
# unit: % | format: bare number

CN(C)C[C@H]1CCn2c(c(C3=C(c4cn(C)c5ccccc45)C(=O)NC3=O)c3ccccc32)C1 : 99

We next turn to a different compound, shown below.
[ask] Tell me its residual activity on MAP4K2 (human) (UniProt Q12851): "CCN(CC)CCCCN1c2ccccc2Oc2ccc(Cl)cc21"
[reply] 110

* * *

MEASUREMENT_TARGET: STK17A (human) (UniProt Q9UEE5)
Sequence (Q9UEE5 whole entry, looked up): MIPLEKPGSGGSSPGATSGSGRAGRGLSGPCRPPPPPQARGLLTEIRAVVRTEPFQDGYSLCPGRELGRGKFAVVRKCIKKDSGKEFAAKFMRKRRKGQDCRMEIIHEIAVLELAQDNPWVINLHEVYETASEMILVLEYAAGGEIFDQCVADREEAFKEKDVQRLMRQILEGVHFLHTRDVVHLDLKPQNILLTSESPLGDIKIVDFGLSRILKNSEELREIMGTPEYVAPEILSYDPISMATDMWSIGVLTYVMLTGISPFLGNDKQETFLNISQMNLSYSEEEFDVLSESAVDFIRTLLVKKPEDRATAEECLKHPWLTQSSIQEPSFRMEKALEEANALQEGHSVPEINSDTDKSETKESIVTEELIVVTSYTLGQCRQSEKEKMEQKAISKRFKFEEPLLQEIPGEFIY
PROTOCOL: radiometric filter-binding kinase assay, Kinase HotSpot
ASSAY_CONDITIONS: compound 0.5 µM; ATP 10 µM
Here, each record is paired with measured residual activity data.
Your answer should be a plain number; it is taken to be in %.

Solved entries:
Cn1cnc2cc3c(Nc4cccc(Br)c4)ncnc3cc21 : 82.5
O=C(CCCc1ccc(-c2ccccc2F)cc1)Nc1ccc(O)cc1 : 101
O=C1NC(=O)C(c2cn(CCCO)c3ncccc23)=C1c1cnccn1 : 93.6
CC(=O)O/N=C1\C(=C2\C(=O)Nc3cc(Br)ccc32)Nc2ccccc21 : 72.7
O=C1NC(=O)C(c2c[nH]c3ccccc23)=C1c1c[nH]c2ccccc12 : 92.2

Query molecule follows.
[ask] Output measured residual activity for this item: "O=C1Cc2c([nH]c3ccc(Br)cc23)-c2ccccc2N1"
[reply] 102
